src = PubChem BioAssay (NCI)

# System: T-47D breast
# Method: NCI tumour cell line growth inhibition, 48 h
Parameter: TGI (µM)
Write the number in µM without appending the unit.

- Structure smiles string: "COC(=O)c1ccc(NCc2cc(O)ccc2O)cc1O"
  Result units: "µM"
  TGI: 37.5

Could you now consider this next compound?
Entry "CCOC(=O)c1c(N2CCOCC2)[nH]c(=O)c(C(c2ccc(Cl)c([N+](=O)[O-])c2)c2c(O)c(C(=O)OCC)c(N3CCOCC3)[nH]c2=O)c1O" , TGI reported as 48.8

###

# Test system: OVCAR-4 ovarian
# Method: NCI tumour cell line growth inhibition, 48 h; in the data active = GI50 below about 0.43 µM; inactive = the rest
Assign a class; possible classes are true (1) (active), false (0) (inactive)

- Structure smiles string: "CN(C)CCOc1nc2ccccc2c2c1-c1ccc(Cl)cc1C2=O"
  Assigned label: "false (0)"
- Structure smiles string: "CC(C)CNc1nc(N=[N+]=[N-])nc(NCC(C)C)n1"
  Assigned label: "false (0)"
- Structure smiles string: "ClC1=C(Cl)C(Cl)=C(Cl)C1=Cc1ccc(Cl)cc1"
  Assigned label: "false (0)"

Incoming: Recorded test outcome, item "N#CSCC(=O)c1ccc(Cl)cc1"
Outgoing: false (0)

Incoming: Which outcome was entered for the molecule "CNCCOc1nc2c3cnccc3cc(-c3cc(OC)c(OC)c(OC)c3)c2c2ccncc12" in this test?
Outgoing: true (1)
